- Test system: PC-3 prostate
- Assay protocol: NCI tumour cell line growth inhibition, 48 h; in the data active = GI50 below about 0.43 µM; inactive = the rest
Classes used: active, inactive

- Compound string: "Cn1c(=O)n(CCCO)c(=O)c2c1nc(Oc1cccc(OC(F)(F)F)c1)n2Cc1ccc(Cl)cc1"
  Target: "PC-3 prostate"
  Group label: "inactive"
- Compound string: "N#C/C(=C\\c1cn(Cc2ccccc2)c2ccccc12)C(=O)Nc1ncc(Cc2ccccc2Cl)s1"
  Target: "PC-3 prostate"
  Group label: "inactive"
- Compound string: "CCOC(=O)/C=C/C1=C(c2ccsc2)c2ccc(OC)cc2CC1"
  Target: "PC-3 prostate"
  Group label: "active"
- Compound string: "O=C(/C=C/c1cc2ccccc2[nH]c1=O)c1ccc(Cl)cc1"
  Target: "PC-3 prostate"
  Group label: "inactive"
- Compound string: "N#Cc1c(-c2ccc(Cl)cc2)csc1NC(=O)Nc1ccc(Cl)c(C(F)(F)F)c1"
  Target: "PC-3 prostate"
  Group label: "active"
- Compound string: "Nc1n[n+](=O)c2ccccc2n1O"
  Target: "PC-3 prostate"
  Group label: "inactive"
- Compound string: "COc1ccc(-c2nnc(COc3ccc(Cl)cc3Cl)o2)cc1OC"
  Target: "PC-3 prostate"
  Group label: "inactive"
